Numbers sourced from patent EP4725957A1.

Measured MIC values are reported for all entries that follow.
System: Pseudomonas aeruginosa ATCC 27853
Type: cell-based
Conditions: ATCC 27853
Protocol: The minimal inhibitory concentration (MIC) was determined by the broth microdilution method according to the recommended procedures of the Clinical and Laboratory Standards Institute (CLSI). An appropriate amount of the cyclic lipopeptide compounds prepared in Examples 1-120 and the reference standards were weighed and dissolved in sterile pure water. […]
Bridge positions count the residues as written; N and C are the ends. Square brackets hold non-standard residues; d marks the D form. Peptide text beside a SMILES is read from it. * marks the point of attachment. Nonanoyl = CCCCCCCCC(=O)*; X1 = CC[C@H](C)CCCCC(=O)*; Octanoyl = CCCCCCCC(=O)*; Orn = NCCC[C@H](N)C(=O)O; Dab = NCC[C@H](N)C(=O)O

CCCCCCCCC(=O)N[C@@H](CCN)C(=O)N[C@H](C(=O)N[C@H](CO)C(=O)N[C@H]1CCNC(=O)[C@H]([C@@H](C)O)NC(=O)[C@H](CCCN)NC(=O)[C@H](CCN)NC(=O)[C@H]([C@@H](C)O)NC(=O)[C@@H](Cc2ccccc2)NC(=O)[C@H](CCN)NC1=O)[C@@H](C)O [Compound 90] (Nonanoyl-[Dab]T[dS][Dab][Dab][dF]T[Dab][Orn]T; lactam 4-C); >64 µg/mL
CC[C@H](C)CCCCC(=O)N[C@@H](CCN)C(=O)N[C@H](C(=O)N[C@@H](CCCN)C(=O)N[C@H]1CCNC(=O)[C@H]([C@@H](C)O)NC(=O)[C@H](CCN)NC(=O)[C@H](CCN)NC(=O)[C@H](CC(C)C)NC(=O)[C@@H](Cc2ccccc2)NC(=O)[C@H](CCN)NC1=O)[C@@H](C)O [Compound 46] (X1-[Dab]T[Orn][Dab][Dab][dF]L[Dab][Dab]T; lactam 4-C); ≤0.03 µg/mL

Shift focus to the following entry.
Query :: # lookup: MIC of CCCCCCCC(=O)N[C@@H](CCN)C(=O)N[C@H](C(=O)N[C@H](CO)C(=O)N[C@H]1CCNC(=O)[C@H]([C@@H](C)O)NC(=O)[C@H](CCN)NC(=O)[C@H](CCCN)NC(=O)[C@H]([C@@H](C)O)NC(=O)[C@@H](Cc2ccccc2)NC(=O)[C@H](CCN)NC1=O)[C@@H](C)O [Compound 78] (Octanoyl-[Dab]T[dS][Dab][Dab][dF]T[Orn][Dab]T; lactam 4-C)
Result :: >64 µg/mL
